Source of measurements: patent US12637469B2

Biological target: EGFR(h) (Homo sapiens)
Construct: purchased Eurofins (KinaseProfiler platform)
Sequence (P00533 25-1210): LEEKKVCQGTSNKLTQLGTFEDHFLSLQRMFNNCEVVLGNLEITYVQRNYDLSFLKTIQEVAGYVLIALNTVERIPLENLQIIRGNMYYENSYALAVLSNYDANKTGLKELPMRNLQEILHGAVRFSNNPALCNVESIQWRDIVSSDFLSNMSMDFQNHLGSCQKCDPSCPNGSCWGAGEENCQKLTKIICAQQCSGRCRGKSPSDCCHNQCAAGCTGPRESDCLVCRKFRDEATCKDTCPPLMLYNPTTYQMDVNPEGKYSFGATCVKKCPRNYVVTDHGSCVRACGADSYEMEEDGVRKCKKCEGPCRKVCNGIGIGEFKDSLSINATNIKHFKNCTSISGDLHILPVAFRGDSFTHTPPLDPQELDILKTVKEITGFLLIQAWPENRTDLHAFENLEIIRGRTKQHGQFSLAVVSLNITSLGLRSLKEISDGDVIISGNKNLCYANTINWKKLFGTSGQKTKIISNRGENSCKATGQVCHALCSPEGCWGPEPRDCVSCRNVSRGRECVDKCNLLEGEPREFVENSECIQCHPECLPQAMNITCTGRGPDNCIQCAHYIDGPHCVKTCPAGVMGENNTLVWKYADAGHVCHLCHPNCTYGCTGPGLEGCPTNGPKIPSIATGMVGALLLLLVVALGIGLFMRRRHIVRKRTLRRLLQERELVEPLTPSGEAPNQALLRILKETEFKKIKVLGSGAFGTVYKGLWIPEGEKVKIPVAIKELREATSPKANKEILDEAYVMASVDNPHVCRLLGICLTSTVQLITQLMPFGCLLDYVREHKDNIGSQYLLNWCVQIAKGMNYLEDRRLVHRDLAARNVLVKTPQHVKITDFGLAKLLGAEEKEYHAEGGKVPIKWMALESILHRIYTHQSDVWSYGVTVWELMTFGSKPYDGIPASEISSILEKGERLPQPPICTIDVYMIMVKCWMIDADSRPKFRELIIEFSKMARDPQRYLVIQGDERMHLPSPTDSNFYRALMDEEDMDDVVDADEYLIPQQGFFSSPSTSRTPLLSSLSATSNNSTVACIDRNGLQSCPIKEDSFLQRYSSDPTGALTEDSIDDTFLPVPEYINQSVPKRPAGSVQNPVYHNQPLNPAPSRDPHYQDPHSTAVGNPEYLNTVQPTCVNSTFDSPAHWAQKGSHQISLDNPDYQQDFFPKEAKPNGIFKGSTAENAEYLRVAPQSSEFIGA
Assay: Eurofins KinaseProfiler off-target kinase inhibition
Format: biochemical
Observable: IC50

[ask] Give recorded IC50. c1cn2c(n1)c(Nc1ccc(N3CCOCC3)cc1)nc1ccc(-c3cn[nH]c3)cc12 [Compound 1]
[reply] > 10000 nM

* * *

Molecular target: mTOR/FKBP12(h) (Homo sapiens, UniProt P42345)
Construct: purchased Eurofins (KinaseProfiler service)
Sequence (P42345 1362-2549 limits assumed): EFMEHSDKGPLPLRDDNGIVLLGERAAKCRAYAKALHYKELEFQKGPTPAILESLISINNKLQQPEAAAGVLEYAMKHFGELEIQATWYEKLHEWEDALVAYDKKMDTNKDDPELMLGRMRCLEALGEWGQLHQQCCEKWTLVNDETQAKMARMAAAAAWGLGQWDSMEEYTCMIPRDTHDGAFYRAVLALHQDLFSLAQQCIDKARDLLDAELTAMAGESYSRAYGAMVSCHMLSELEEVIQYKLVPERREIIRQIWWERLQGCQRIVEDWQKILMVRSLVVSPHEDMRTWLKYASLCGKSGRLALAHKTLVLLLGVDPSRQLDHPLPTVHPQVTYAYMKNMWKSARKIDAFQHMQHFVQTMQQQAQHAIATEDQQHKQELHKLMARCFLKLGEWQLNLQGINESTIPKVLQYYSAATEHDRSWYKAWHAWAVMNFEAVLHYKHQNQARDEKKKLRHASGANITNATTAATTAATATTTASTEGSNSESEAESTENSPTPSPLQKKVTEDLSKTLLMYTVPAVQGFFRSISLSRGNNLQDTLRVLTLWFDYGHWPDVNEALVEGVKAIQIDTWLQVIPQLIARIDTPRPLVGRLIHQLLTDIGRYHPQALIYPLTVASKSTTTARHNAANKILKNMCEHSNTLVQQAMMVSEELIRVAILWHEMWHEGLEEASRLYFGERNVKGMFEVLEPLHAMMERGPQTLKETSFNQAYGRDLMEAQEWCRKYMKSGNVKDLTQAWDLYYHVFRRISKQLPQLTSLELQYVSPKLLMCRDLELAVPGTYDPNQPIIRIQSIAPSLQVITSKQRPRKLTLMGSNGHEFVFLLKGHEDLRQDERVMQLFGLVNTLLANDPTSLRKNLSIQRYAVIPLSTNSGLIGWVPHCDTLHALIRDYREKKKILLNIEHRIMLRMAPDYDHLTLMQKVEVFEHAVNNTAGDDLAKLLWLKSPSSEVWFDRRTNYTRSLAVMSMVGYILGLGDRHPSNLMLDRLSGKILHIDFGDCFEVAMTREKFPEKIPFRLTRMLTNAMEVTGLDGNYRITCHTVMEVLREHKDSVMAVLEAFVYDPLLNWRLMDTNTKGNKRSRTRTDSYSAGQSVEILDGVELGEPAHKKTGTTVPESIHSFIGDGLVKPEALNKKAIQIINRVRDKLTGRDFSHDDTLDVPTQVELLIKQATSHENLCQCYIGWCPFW
Assay: Eurofins KinaseProfiler off-target kinase inhibition
Assay type: biochemical
Observable: IC50

[ask] Quote IC50 with test system mTOR/FKBP12(h) (Homo sapiens, UniProt P42345) for c1cn2c(n1)c(Nc1ccc(N3CCOCC3)cc1)nc1ccc(-c3cn[nH]c3)cc12
[reply] > 10000 nM
